Consider the following molecules and their measured Kd readings.
TESTED_SYSTEM: rAtACBP5 (Arabidopsis thaliana, UniProt Q8RWD9)
Sequence (Q8RWD9 whole entry): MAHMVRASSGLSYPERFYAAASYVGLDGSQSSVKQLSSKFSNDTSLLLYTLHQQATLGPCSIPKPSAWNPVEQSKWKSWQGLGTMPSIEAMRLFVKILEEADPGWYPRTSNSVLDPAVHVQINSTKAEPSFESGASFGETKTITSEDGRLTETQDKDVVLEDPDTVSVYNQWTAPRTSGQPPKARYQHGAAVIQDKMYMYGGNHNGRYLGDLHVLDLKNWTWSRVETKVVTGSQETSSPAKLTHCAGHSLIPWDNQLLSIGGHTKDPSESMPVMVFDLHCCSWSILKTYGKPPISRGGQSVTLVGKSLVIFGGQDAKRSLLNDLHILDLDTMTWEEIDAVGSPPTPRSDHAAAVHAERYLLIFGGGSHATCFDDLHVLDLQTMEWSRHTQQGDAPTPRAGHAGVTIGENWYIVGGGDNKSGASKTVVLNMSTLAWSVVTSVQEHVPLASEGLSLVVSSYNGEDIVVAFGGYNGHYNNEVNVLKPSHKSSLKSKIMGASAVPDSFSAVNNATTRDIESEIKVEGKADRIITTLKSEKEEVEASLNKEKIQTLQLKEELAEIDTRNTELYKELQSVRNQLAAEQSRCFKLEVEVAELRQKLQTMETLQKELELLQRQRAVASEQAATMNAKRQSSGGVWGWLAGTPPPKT
ASSAY_INFO: ITC of acyl-CoA esters binding to rAtACBP5
CONDITION_DETAILS: ITC, 30°C, 10 mM sodium phosphate buffer pH 7.0; mean of three±S.D.; read-out: Kd

RECORD_SMILES	Kd (µM)
CCCCCCCC/C=C\CCCCCCCC(=O)SCCNC(=O)CCNC(=O)[C@H](O)C(C)(C)COP(=O)(O)OP(=O)(O)OC[C@H]1O[C@@H](n2cnc3c(N)ncnc32)[C@H](O)[C@@H]1OP(=O)(O)O	74.4
CCCCC/C=C\C/C=C\CCCCCCCC(=O)SCCNC(=O)CCNC(=O)[C@H](O)C(C)(C)COP(=O)(O)OP(=O)(O)OC[C@H]1O[C@@H](n2cnc3c(N)ncnc32)[C@H](O)[C@@H]1OP(=O)(O)O	64.1
CCCCCCCCCCCCCCCC(=O)SCCNC(=O)CCNC(=O)[C@H](O)C(C)(C)COP(=O)(O)OP(=O)(O)OC[C@H]1O[C@@H](n2cnc3c(N)ncnc32)[C@H](O)[C@@H]1OP(=O)(O)O	35.7
CCCCCCCCCCCCCCCCCC(=O)SCCNC(=O)CCNC(=O)[C@H](O)C(C)(C)COP(=O)(O)OP(=O)(O)OC[C@H]1O[C@@H](n2cnc3c(N)ncnc32)[C@H](O)[C@@H]1OP(=O)(O)O	35.4
CC/C=C\C/C=C\C/C=C\CCCCCCCC(=O)SCCNC(=O)CCNC(=O)[C@H](O)C(C)(C)COP(=O)(O)OP(=O)(O)OC[C@H]1O[C@@H](n2cnc3c(N)ncnc32)[C@H](O)[C@@H]1OP(=O)(O)O	92.4
